- study_target: T1, TNFR1 (Homo sapiens, UniProt P19438)
- T1 chain: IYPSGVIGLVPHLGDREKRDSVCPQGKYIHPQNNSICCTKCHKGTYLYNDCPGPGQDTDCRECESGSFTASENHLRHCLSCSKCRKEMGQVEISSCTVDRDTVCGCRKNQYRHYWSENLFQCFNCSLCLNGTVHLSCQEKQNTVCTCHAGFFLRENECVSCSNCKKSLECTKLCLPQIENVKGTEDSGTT
- assay_name: yeast display SC50
value_type: apparent Kd (screen) (nM)

Example entries and their recorded answers appear below.
- binder: "E4A (designed binder) SMEAEVEKAAKEYEKKKKEAIEKHLEKLKAKDKEAAERFLKELEEAAKEYAKDEAKTMSEEEAKRRAKKYKEKVLLSELSEEEQKEIKEAEEKLVRTILKYVEEAAK"
  result: 0.539
- binder: "E44S (designed binder) SMEEEVEKAAKEYEKKKKEAIEKHLEKLKAKDKEAAERFLKELSEAAKEYAKDEAKTMSEEEAKRRAKKYKEKVLLSELSEEEQKEIKEAEEKLVRTILKYVEEAAK"
  result: 1.86
- binder: "K107R (designed binder) SMEEEVEKAAKEYEKKKKEAIEKHLEKLKAKDKEAAERFLKELEEAAKEYAKDEAKTMSEEEAKRRAKKYKEKVLLSELSEEEQKEIKEAEEKLVRTILKYVEEAAR"
  result: 1.54
- binder: "L99R (designed binder) SMEEEVEKAAKEYEKKKKEAIEKHLEKLKAKDKEAAERFLKELEEAAKEYAKDEAKTMSEEEAKRRAKKYKEKVLLSELSEEEQKEIKEAEEKLVRTIRKYVEEAAK"
  result: 12.5
- binder: "V74P (designed binder) SMEEEVEKAAKEYEKKKKEAIEKHLEKLKAKDKEAAERFLKELEEAAKEYAKDEAKTMSEEEAKRRAKKYKEKPLLSELSEEEQKEIKEAEEKLVRTILKYVEEAAK"
  result: 0.446

[1] A105W (designed binder) SMEEEVEKAAKEYEKKKKEAIEKHLEKLKAKDKEAAERFLKELEEAAKEYAKDEAKTMSEEEAKRRAKKYKEKVLLSELSEEEQKEIKEAEEKLVRTILKYVEEWAK
[2] K15F (designed binder) SMEEEVEKAAKEYEFKKKEAIEKHLEKLKAKDKEAAERFLKELEEAAKEYAKDEAKTMSEEEAKRRAKKYKEKVLLSELSEEEQKEIKEAEEKLVRTILKYVEEAAK
IN: Lab notebook, comparison: 1 versus 2 , higher apparent Kd (screen) goes to which? Please reply using the label of the selected record.
OUT: 1
